Target protein (sequence): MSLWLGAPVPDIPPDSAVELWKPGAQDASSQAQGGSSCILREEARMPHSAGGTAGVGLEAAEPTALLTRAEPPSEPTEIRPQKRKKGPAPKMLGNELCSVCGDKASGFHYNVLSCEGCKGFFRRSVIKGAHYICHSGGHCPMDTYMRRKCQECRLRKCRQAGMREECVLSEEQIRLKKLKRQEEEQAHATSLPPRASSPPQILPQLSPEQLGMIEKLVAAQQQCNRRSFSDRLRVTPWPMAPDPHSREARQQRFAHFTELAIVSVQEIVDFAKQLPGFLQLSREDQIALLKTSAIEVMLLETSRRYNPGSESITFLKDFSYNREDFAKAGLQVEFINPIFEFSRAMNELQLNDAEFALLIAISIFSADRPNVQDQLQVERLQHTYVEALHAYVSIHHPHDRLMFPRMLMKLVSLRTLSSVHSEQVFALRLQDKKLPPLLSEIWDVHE
observed-property: IC50
State the result as a value with its unit after it.

Quick one: give me IC50 for each item below, same order please.
1. CS(=O)(=O)c1cccc(C(=O)Oc2cccc(-c3c(-c4ccccc4)cnc4c(C(F)(F)F)cccc34)c2)c1
2. CC(C)c1cnc2c(Cl)cccc2c1-c1cccc(OC(=O)c2ccc(S(=O)(=O)N(C)C)cc2)c1
3. Cc1ccc(S(=O)(=O)N(C)C)cc1C(=O)Oc1cccc(-c2c(C(C)C)cnc3c(C(F)(F)F)cccc23)c1
4. Cc1ccc(S(=O)(=O)N2CCOCC2)cc1C(=O)Oc1cccc(-c2c(C(C)C)cnc3c(Cl)cccc23)c1

## Output
3.9 nM
188 nM
64 nM
664 nM

* * *

- System: ABCG1
- assay-method-text: Gene regulation by LXR: ABCG1, human foreskin fibroblasts (serum-free)
- Assay type: cell-based
- measurement-context: Fibroblast
observed-property: EC50
State the result as a value with its unit after it.

query-smiles | EC50
CCCc1cnc2c(C(F)(F)F)cccc2c1-c1cccc(OC(=O)c2cccc(S(C)(=O)=O)c2)c1 | 11 nM

Quick one: give me EC50 for each item below, same order please.
1. Cc1ccc(S(C)(=O)=O)cc1C(=O)Oc1cccc(-c2c(C(C)C)cnc3c(Cl)cccc23)c1
2. Cc1ccc(S(C)(=O)=O)cc1C(=O)Oc1cccc(-c2c(C(C)C)cnc3c(C(F)(F)F)cccc23)c1

## Output
1: 33 nM; 2: 23 nM
